biological target: Acetylcholinesterase (Electrophorus electricus); experiment: Inhibition of electric eel AChE using acetylthiocholine iodide as substrate preincubated for 15 mins followed by substrate addition and measured at 1 min intervals by Ellman's method
Sequence (O42275 whole entry): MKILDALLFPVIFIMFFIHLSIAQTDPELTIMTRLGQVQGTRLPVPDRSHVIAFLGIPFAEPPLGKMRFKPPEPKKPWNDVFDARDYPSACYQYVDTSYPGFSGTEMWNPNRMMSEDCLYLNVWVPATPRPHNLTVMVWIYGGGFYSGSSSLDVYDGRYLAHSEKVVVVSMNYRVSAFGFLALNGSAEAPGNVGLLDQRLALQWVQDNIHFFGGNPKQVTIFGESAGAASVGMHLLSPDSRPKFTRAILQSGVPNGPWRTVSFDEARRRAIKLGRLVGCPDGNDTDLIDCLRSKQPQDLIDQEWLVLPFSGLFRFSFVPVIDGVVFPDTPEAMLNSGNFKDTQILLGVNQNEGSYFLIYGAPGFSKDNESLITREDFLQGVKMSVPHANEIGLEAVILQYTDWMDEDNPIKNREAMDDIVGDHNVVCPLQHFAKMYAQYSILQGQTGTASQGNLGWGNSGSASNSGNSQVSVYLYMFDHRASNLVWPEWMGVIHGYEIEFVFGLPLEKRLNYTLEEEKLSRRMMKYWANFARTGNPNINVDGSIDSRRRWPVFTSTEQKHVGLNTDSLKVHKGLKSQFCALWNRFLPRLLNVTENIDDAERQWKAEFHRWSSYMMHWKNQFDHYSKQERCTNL
readout: IC50
Could you give the number and then its unit, please?

Requested read-out: IC50. Entry: COc1ccc2[nH]cc(CCNC(=O)/C=C\C(=O)Nc3ccc4c(c3)C(=O)c3cccc5ccnc-4c35)c2c1
6.1 µM

I would be grateful if you could share the reported IC50 for O=C(/C=C\C(=O)Nc1ccc2c(c1)C(=O)c1cccc3ccnc-2c13)NCCc1c[nH]c2ccc(F)cc12 .
15 µM

Field request: IC50 | item: O=C(/C=C/C(=O)Nc1ccc2c(c1)C(=O)c1cccc3ccnc-2c13)NCCc1c[nH]c2ccc(F)cc12
2.37 µM

Please give the measured IC50 for this compound: Cc1ccc2[nH]cc(CCNC(=O)/C=C\C(=O)Nc3ccc4c(c3)C(=O)c3cccc5ccnc-4c35)c2c1
5.1 µM
